B1: HDV Ribozyme (parent)
chain: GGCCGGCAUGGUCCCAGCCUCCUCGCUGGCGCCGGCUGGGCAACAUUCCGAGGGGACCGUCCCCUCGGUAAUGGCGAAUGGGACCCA

Variants of: B1
Test: self-cleavage, relative activity (ratio to wild type); higher = more cleavage; co-transcriptional
Classes by self-cleavage: bucket 1 (below 0.08), bucket 2 (0.08 to below 0.3), bucket 3 (0.3 or more)

>  <Sequence input>
GGCCGGCAUGGUCCCAGCCUCCUCGCUGGCGCCGGGUGGGCAACAUUCCGAGGGGACCGUCCCCUCGGUAAUGGCGAAUGGGAUCCA [C36G C84U]

>  <Category label>
bucket 1

$$$$
>  <Sequence input>
GGCCGGCAUGGUCCCAGCGUCCUCGCUGGCGCCGGCUGGGCAACAUUCCGAGGGGACCGUCCCCUCGGUAAUGGCGAAUGGGACUCA [C19G C85U]

>  <Category label>
bucket 1

$$$$
>  <Sequence input>
GGCCGGCAUGGUCCCAGGCUCCUCGCUGGCGCCGGCUGGGCAACAUUCCGAGGGGACCGUGCCCUCGGUAAUGGCGAAUGGGACCCA [C18G C61G]

>  <Category label>
bucket 2

$$$$
>  <Sequence input>
GGCCGGCAUGGUCCCAGCCUCCUCGCUGGCGCCGGCUGGGCAACAUUCCGAGGGAACCGGCCCCUCGGUAAUGGCGAAUGGGACCCA [G55A U60G]

>  <Category label>
bucket 3

$$$$
>  <Sequence input>
GGCCGGCAUGGUACCAGCCUCCUCGCUGGCGCCGGCUGGGCAACAUUCCGAGGGGACCGUCCCCUCGGUAAUGGCGAAUGGGACCCC [C13A A87C]

>  <Category label>
bucket 2

$$$$
>  <Sequence input>
GCCCGGCAUGGUCCCAGCCUCCUCGCGGGCGCCGGCUGGGCAACAUUCCGAGGGGACCGUCCCCUCGGUAAUGGCGAAUGGGACCCA [G2C U27G]

>  <Category label>
bucket 1

$$$$
>  <Sequence input>
GGCCGGCCUGGUCCCAGCCUCCUCGCUGGCGCCGGCUGGGCAACAUUCCGAGGGGACCGUCCCCUCGGUAAUGUCGAAUGGGACCCA [A8C G74U]

>  <Category label>
bucket 3

$$$$
>  <Sequence input>
GGCCGGCAUGGUCCCAGCCUCCUCGCUGGCGCCGGCUGGGCAACAUUCCGAGGGGACCGCCCCCUCGGUAAUGGCGACUGGGACCCA [U60C A78C]

>  <Category label>
bucket 2

$$$$
>  <Sequence input>
GGCCGGCAUGGUCCCAGCCUCCUCGCUGGGGCCGGCUGGGCAACAUUCCGAGGGGAACGUCCCCUCGGUAAUGGCGAAUGGGACCCA [C30G C57A]

>  <Category label>
bucket 2

$$$$
>  <Sequence input>
GGCCGGCAUGGUCCCAGCCUCCUCGCUGGCGCCGGCUGGGCAACAUUCCGAGGGGACCGUCACCUCGGUAAUGGCGAAUGGAACCCA [C62A G82A]

>  <Category label>
bucket 3

$$$$
>  <Sequence input>
GGCCGGCAUGGUCCCAGCGUCCUCGCUGUCGCCGGCUGGGCAACAUUCCGAGGGGACCGUCCCCUCGGUAAUGGCGAAUGGGACCCA [C19G G29U]

>  <Category label>
bucket 1

$$$$
>  <Sequence input>
GGCCGGCAUGGUCCCAGCCUCCUCGAUGGCGCCGGCUGGGCAACAUUUCGAGGGGACCGUCCCCUCGGUAAUGGCGAAUGGGACCCA [C26A C48U]

>  <Category label>
bucket 3

$$$$
